Target: peptidase domain of ColH (ColH-PD) (Hathewaya histolytica)
Sequence (Q46085 331-721 limits assumed): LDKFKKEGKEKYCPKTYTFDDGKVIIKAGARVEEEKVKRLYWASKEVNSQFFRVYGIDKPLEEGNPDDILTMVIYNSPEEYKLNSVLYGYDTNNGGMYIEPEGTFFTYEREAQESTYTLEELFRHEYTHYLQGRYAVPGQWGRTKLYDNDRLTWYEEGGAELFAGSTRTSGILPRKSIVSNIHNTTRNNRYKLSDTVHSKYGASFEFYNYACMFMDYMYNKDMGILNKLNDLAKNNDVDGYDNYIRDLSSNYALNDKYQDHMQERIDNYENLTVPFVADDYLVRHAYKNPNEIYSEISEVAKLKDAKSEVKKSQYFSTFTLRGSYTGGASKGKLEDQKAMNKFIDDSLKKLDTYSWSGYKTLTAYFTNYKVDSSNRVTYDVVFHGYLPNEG
Collected IC50 values appear next to each entry.
measureName: IC50 (nM)

# compound, unitSpec, valueMeasured
rows = [
    ("COc1ccc(N2C(=O)CC(S)C2=O)cc1 (centres unmarked) [Compound 20]", "nM", 320),
    ("CC(=O)c1ccc(N2C(=O)CC(S)C2=O)cc1 (centres unmarked) [Compound 25]", "nM", 60),
]

###

Consider the following compounds and their measured pIC50 readings.
Target: LasB (Pseudomonas aeruginosa, UniProt Q02RJ6)
Sequence (Q02RJ6 198-498): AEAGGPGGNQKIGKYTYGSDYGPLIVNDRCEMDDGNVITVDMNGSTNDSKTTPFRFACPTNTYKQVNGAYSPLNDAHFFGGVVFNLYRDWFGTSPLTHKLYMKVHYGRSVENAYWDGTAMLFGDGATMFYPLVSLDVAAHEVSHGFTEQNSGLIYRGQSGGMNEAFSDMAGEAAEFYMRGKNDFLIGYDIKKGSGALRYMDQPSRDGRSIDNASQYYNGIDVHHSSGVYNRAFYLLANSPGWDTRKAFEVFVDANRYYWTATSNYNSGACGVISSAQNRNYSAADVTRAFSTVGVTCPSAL
Experiment: biochemical
Settings: LasB IC50, FRET-based assay
pIC50: −log10 of the molar value.
measureName: pIC50

# compound, censorSymbol, valueMeasured
rows = [
    ("O=C1CC(S)C(=O)N1c1ccccc1Cl (stereo not drawn)", "=", 5.07),
    ("O=C1CC(S)C(=O)N1c1cccc(-c2ccccc2)c1 (stereo not drawn)", "=", 4.56),
    ("COc1ccc(N2C(=O)CC(S)C2=O)c(OC)c1 (stereo not drawn)", "=", 4.35),
    ("O=C1CC(S)C(=O)N1c1ccc(-c2ccccc2)cc1 (stereo not drawn)", "=", 4.35),
    ("Cc1ccc(N2C(=O)CC(S)C2=O)cc1 (stereo not drawn)", "=", 4.30),
    ("COc1ccc(N2C(=O)CC(SC(C)=O)C2=O)cc1 (stereo not drawn)", "<", 3.70),
]
